assayed.target: human VEGFR2 (Homo sapiens)
Construct: kinase domain (amino acids 790 to end) fragment; 6xHis (N); made in house; host or cells: Sf21 insect cells (baculovirus)
assay.procedure: VEGFR2/KDR radioisotope kinase assay
Assay type: biochemical
pIC50: −log10 of the molar value.
measurement.name: pIC50

- compound: "COc1cc2c(Oc3ccc4[nH]c(C)cc4c3F)ncnc2cc1OCCCCCCC(=O)NO [Compound 11]"
  endpoint.result: "> 7.00"

---

assayed.target: human c-Met (Homo sapiens)
Construct: recombinant human catalytic domain (amino acids 956-1390); His
Sequence (P08581 956-1390): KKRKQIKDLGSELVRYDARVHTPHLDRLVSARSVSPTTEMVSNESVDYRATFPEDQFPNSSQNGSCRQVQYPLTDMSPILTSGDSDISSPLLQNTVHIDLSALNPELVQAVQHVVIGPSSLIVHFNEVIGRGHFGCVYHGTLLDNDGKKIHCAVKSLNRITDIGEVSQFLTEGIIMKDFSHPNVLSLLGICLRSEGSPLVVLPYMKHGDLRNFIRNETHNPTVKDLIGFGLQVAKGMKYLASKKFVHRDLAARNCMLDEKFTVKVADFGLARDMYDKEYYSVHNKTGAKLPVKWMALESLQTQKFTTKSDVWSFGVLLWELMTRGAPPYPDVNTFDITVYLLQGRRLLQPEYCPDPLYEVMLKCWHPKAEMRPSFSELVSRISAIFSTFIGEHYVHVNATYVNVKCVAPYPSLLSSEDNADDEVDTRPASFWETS
assay.procedure: c-Met radioisotope kinase assay
condition.context: 1 μM ATP
Protocol: (c) An In Vitro Assay which Determines the Ability of a Test Compound to Inhibit c-MET Enzymatic Activity. For c-Met assay, p33 ATP tracers were incubated with purified recombinant c-Met kinase to monitor the enzyme activity. […] Activity determined at a final protein concentration of 2 μg/mL. […] The amount of incorporated isotope was measured using a Perkin Elmer TopCount plate reader. […] IC50 was calculated using Prism software with sigmoidal dose-response curve fitting.
pIC50: −log10 of the molar value.

- smiles.text: "COc1cc2c(Oc3ccc4[nH]c(C)cc4c3F)ncnc2cc1OCCCCCC(=O)NO"
  pIC50: "5.00 to 6.00"
- smiles.text: "COc1cc2c(Oc3ccc4[nH]c(C)cc4c3F)ncnc2cc1OCCCCCCC(=O)NO"
  pIC50: "5.00 to 6.00"
- smiles.text: "Cc1cc2c(F)c(Nc3ncnc4cc(OCCCN5CCCC5)c(OCCCCCCC(=O)NO)cc34)ccc2[nH]1"
  pIC50: "5.00 to 6.00"
- smiles.text: "Cc1cc2c(F)c(Oc3ncnc4cc(OCCCN5CCCC5)c(OCCCCCCC(=O)NO)cc34)ccc2[nH]1"
  pIC50: "> 7.00"
- smiles.text: "Cc1cc2c(F)c(Oc3ncnc4cc(OCCCN5CCCC5)c(OCCCCCC(=O)NO)cc34)ccc2[nH]1"
  pIC50: "6.00 to 7.00"
- smiles.text: "COc1cc2c(Nc3ccc4[nH]c(C)cc4c3F)ncnc2cc1OCCCCCCC(=O)NO"
  pIC50: "5.00 to 6.00"

---

assayed.target: human VEGFR2 (Homo sapiens, UniProt P35968)
Construct: kinase domain (amino acids 790 to end) fragment; 6xHis (N); made in house; host or cells: Sf21 insect cells (baculovirus)
Sequence (P35968 790-1356 limits assumed): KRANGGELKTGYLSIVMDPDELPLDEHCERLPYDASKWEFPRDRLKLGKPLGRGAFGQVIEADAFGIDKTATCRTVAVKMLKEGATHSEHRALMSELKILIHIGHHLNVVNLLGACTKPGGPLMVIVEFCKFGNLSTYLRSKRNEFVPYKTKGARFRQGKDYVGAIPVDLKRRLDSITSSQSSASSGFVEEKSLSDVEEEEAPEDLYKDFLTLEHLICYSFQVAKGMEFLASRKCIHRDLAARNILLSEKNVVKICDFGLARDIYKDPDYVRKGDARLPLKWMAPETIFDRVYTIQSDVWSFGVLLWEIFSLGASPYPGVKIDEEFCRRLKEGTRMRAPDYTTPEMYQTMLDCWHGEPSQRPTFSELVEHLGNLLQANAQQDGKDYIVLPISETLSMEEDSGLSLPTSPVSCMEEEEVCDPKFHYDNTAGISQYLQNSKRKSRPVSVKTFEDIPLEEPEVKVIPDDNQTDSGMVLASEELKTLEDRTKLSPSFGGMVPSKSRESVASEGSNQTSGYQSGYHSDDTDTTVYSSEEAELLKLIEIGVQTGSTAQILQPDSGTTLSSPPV
assay.procedure: VEGFR2/KDR radioisotope kinase assay
Assay type: biochemical
condition.context: 100 μM ATP; read-out: VEGFR2 IC50
pIC50: −log10 of the molar value.

- smiles.text: "COc1cc2c(Nc3ccc4[nH]c(C)cc4c3F)ncnc2cc1OCCCCCC(=O)NO"
  pIC50: "> 7.00"
- smiles.text: "Cc1cc2c(F)c(Oc3ncnc4cc(OCCCN5CCCC5)c(OCCCCCC(=O)NO)cc34)ccc2[nH]1"
  pIC50: "> 7.00"
- smiles.text: "COc1cc2c(Nc3ccc4[nH]c(C)cc4c3F)ncnc2cc1OCCCCCCC(=O)NO"
  pIC50: "> 7.00"
- smiles.text: "Cc1cc2c(F)c(Nc3ncnc4cc(OCCCN5CCCC5)c(OCCCCC(=O)NO)cc34)ccc2[nH]1"
  pIC50: "> 7.00"
- smiles.text: "Cc1cc2c(F)c(Nc3ncnc4cc(OCCCN5CCCC5)c(OCCCCCC(=O)NO)cc34)ccc2[nH]1"
  pIC50: "> 7.00"
- smiles.text: "Cc1cc2c(F)c(Oc3ncnc4cc(OCCCN5CCCC5)c(OCCCCCCC(=O)NO)cc34)ccc2[nH]1"
  pIC50: "> 7.00"
- smiles.text: "COc1cc2c(Oc3ccc4[nH]c(C)cc4c3F)ncnc2cc1OCCCCCC(=O)NO"
  pIC50: "> 7.00"
- smiles.text: "Cc1cc2c(F)c(Nc3ncnc4cc(OCCCN5CCCC5)c(OCCCCCCC(=O)NO)cc34)ccc2[nH]1"
  pIC50: "> 7.00"
- smiles.text: "COc1cc2c(Nc3ccc4occc4c3)ncnc2cc1OCCCCCCC(=O)NO"
  pIC50: "5.00 to 6.00"
- smiles.text: "COc1cc2ncnc(Nc3ccc4occc4c3)c2cc1OCCCCCCC(=O)NO"
  pIC50: "5.00 to 6.00"

---

assayed.target: human c-Kit (Homo sapiens, UniProt P10721)
Construct: human c-Kit (Thr544-Val976)
Sequence (P10721 544-976): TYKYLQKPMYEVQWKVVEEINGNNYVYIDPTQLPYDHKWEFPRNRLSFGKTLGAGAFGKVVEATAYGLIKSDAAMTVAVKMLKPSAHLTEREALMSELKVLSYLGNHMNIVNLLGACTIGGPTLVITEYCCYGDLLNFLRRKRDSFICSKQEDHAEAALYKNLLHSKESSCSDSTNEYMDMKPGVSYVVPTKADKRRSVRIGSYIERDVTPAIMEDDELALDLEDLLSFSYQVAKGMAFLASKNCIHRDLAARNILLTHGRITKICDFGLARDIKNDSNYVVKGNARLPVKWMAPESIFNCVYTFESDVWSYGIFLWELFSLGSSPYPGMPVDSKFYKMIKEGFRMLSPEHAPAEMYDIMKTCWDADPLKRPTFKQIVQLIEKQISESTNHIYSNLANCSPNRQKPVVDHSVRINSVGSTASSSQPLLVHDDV
assay.procedure: c-Kit kinase assay (HTScan Receptor Kinase Assay Kit, DELFIA)
condition.context: 200 μM ATP
measurement.name: IC50

- smiles.text: "COc1cc2c(Nc3ccc4[nH]c(C)cc4c3F)ncnc2cc1OCCCCCC(=O)NO"
  endpoint.result: "100 to 1000 nM"
- smiles.text: "Cc1cc2c(F)c(Nc3ncnc4cc(OCCCN5CCCC5)c(OCCCCCCC(=O)NO)cc34)ccc2[nH]1"
  endpoint.result: "100 to 1000 nM"
- smiles.text: "COc1cc2c(Oc3ccc4[nH]c(C)cc4c3F)ncnc2cc1OCCCCCCC(=O)NO"
  endpoint.result: "< 100 nM"
- smiles.text: "COc1cc2c(Nc3ccc4[nH]c(C)cc4c3F)ncnc2cc1OCCCCCCC(=O)NO"
  endpoint.result: "100 to 1000 nM"

---

assayed.target: human EGFR (Homo sapiens, UniProt P00533)
Construct: human EGFR (His672-Ala1210)
Sequence (P00533 672-1210): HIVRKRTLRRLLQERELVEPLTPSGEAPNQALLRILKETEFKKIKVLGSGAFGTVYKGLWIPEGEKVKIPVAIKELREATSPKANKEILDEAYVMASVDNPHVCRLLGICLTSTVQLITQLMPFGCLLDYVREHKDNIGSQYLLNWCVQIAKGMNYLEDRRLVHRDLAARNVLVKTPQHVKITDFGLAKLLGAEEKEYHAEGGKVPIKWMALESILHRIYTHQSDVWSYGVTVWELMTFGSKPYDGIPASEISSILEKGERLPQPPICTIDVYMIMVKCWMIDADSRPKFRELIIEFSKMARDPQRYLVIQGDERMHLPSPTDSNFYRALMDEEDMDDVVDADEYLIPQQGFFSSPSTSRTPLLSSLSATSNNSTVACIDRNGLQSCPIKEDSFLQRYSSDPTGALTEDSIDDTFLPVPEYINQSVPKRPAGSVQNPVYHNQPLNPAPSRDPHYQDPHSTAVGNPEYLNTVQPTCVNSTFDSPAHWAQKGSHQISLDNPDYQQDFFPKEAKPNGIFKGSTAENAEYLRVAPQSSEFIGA
assay.procedure: EGFR kinase assay (HTScan EGF Receptor Kinase Assay Kit, DELFIA)
condition.context: 200 μM ATP
measurement.name: IC50

- smiles.text: "Cc1cc2c(F)c(Nc3ncnc4cc(OCCCN5CCCC5)c(OCCCCCC(=O)NO)cc34)ccc2[nH]1"
  measurement.name: "IC50"
  endpoint.result: "< 100 nM"
- smiles.text: "COc1cc2c(Oc3ccc4[nH]c(C)cc4c3F)ncnc2cc1OCCCCCC(=O)NO"
  measurement.name: "IC50"
  endpoint.result: "100 to 1000 nM"
- smiles.text: "COc1cc2c(Nc3ccc4[nH]c(C)cc4c3F)ncnc2cc1OCCCCC(=O)NO"
  measurement.name: "IC50"
  endpoint.result: "100 to 1000 nM"
- smiles.text: "COc1cc2ncnc(Nc3ccc4occc4c3)c2cc1OCCCCCCC(=O)NO"
  measurement.name: "IC50"
  endpoint.result: "< 100 nM"
- smiles.text: "COc1cc2c(Oc3ccc4[nH]c(C)cc4c3F)ncnc2cc1OCCCCCCC(=O)NO"
  measurement.name: "IC50"
  endpoint.result: "1000 to 10000 nM"
- smiles.text: "Cc1cc2c(F)c(Nc3ncnc4cc(OCCCN5CCCC5)c(OCCCCC(=O)NO)cc34)ccc2[nH]1"
  measurement.name: "IC50"
  endpoint.result: "100 to 1000 nM"
- smiles.text: "COc1cc2c(Nc3ccc4[nH]c(C)cc4c3F)ncnc2cc1OCCCCCCC(=O)NO"
  measurement.name: "IC50"
  endpoint.result: "< 100 nM"
- smiles.text: "COc1cc2c(Nc3ccc4[nH]c(C)cc4c3F)ncnc2cc1OCCCCCC(=O)NO"
  measurement.name: "IC50"
  endpoint.result: "100 to 1000 nM"

---

assayed.target: human HER2 (Homo sapiens, UniProt P04626)
Construct: human HER2 amino acids 679-1255; host or cells: Sf9 insect cells (baculovirus)
Sequence (P04626 679-1255): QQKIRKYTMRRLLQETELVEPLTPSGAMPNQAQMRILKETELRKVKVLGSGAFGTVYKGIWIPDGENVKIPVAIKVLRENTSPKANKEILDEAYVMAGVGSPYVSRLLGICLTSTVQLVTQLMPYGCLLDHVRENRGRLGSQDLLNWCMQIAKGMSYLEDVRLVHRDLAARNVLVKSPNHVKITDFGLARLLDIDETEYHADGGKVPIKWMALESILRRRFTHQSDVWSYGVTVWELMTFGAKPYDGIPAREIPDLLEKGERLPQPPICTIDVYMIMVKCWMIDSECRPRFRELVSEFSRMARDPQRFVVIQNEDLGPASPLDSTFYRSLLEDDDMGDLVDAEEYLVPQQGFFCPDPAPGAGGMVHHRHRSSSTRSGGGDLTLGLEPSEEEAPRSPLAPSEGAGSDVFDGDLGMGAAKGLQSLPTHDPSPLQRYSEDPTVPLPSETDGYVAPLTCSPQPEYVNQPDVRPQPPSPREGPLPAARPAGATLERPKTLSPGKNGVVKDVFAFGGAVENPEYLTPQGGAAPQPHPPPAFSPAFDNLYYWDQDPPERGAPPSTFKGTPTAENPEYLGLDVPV
assay.procedure: HER2 enzymatic activity assay
Format: biochemical
condition.context: 1 μM ATP; read-out: HER2/ErbB IC50
Method: (d) An In Vitro Assay which Determines the Ability of a Test Compound to Inhibit HER2 Enzymatic Activity. 10 nM HER2 and 0.1 mg/ml polyEY were placed in the reaction buffer and 2 mM MnCl2, 1 μM ATP and 1% DMSO final were added. The reaction mixture was incubated for 2 hours at room temperature. Purity>90% by SDS PAGE and Coomassie blue staining. MW=91.6 kDa. […]
pIC50: −log10 of the molar value.

- compound: "Cc1cc2c(F)c(Nc3ncnc4cc(OCCCN5CCCC5)c(OCCCCCC(=O)NO)cc34)ccc2[nH]1 [Compound 19]"
  pIC50: "> 7.00"
- compound: "COc1cc2c(Nc3ccc4[nH]c(C)cc4c3F)ncnc2cc1OCCCCCCC(=O)NO [Compound 14]"
  pIC50: "6.00 to 7.00"
- compound: "Cc1cc2c(F)c(Oc3ncnc4cc(OCCCN5CCCC5)c(OCCCCCC(=O)NO)cc34)ccc2[nH]1 [Compound 16]"
  pIC50: "> 7.00"
- compound: "Cc1cc2c(F)c(Nc3ncnc4cc(OCCCN5CCCC5)c(OCCCCC(=O)NO)cc34)ccc2[nH]1 [Compound 18]"
  pIC50: "> 7.00"
- compound: "Cc1cc2c(F)c(Nc3ncnc4cc(OCCCN5CCCC5)c(OCCCCCCC(=O)NO)cc34)ccc2[nH]1 [Compound 20]"
  pIC50: "> 7.00"

---

System: HDAC
assay.procedure: HDAC fluorimetric assay kit (HeLa nuclear extract)
Type: biochemical
measurement.name: IC50

- smiles.text: "COc1cc2c(Nc3ccc4[nH]c(C)cc4c3F)ncnc2cc1OCCCCCC(=O)NO"
  assayed.target: "HDAC"
  endpoint.result: "< 100 nM"
- smiles.text: "Cc1cc2c(F)c(Oc3ncnc4cc(OCCCN5CCCC5)c(OCCCCCC(=O)NO)cc34)ccc2[nH]1"
  assayed.target: "HDAC"
  endpoint.result: "100 to 1000 nM"
- smiles.text: "COc1cc2c(Oc3ccc4[nH]c(C)cc4c3F)ncnc2cc1OCCCCC(=O)NO"
  assayed.target: "HDAC"
  endpoint.result: "100 to 1000 nM"
- smiles.text: "COc1cc2c(Oc3ccc4[nH]c(C)cc4c3F)ncnc2cc1OCCCCCC(=O)NO"
  assayed.target: "HDAC"
  endpoint.result: "100 to 1000 nM"
- smiles.text: "Cc1cc2c(F)c(Nc3ncnc4cc(OCCCN5CCCC5)c(OCCCCCC(=O)NO)cc34)ccc2[nH]1"
  assayed.target: "HDAC"
  endpoint.result: "100 to 1000 nM"

Every entry's value here was drawn from patent US20090076044A1.
